- Tested on: Arabidopsis thaliana Columbia (Col0) seedlings
- Experiment Description: Lateral root initiation (lateral roots + lateral root primordia, number and density)
- Assay type: in vivo
- Assay Context: in vivo
Parameter: effect on number of LR+ LRP (lateral root initiation)

[
  {
    "Molecule": "CCOP(=O)(NCc1ccccn1)c1ccc(Br)c2ccccc12 (centres unmarked) [Analogue E1]",
    "Endpoint Result": "strong inhibitors"
  },
  {
    "Molecule": "CCOP(=O)(NCc1ccccc1)c1ccc(Br)c2ccccc12 (centres unmarked) [Analogue E4]",
    "Endpoint Result": "strong inhibitors"
  }
]

---

- Tested on: etiolated Arabidopsis thaliana seedlings
- Assay Context: in vivo
Parameter: AR

Below, each entry is followed by its recorded AR result.
[
  {
    "Compound": "CC1=CC(=O)CC(C)(C)[C@@]1(O)/C=C/C(C)=C\\C(=O)O [ABA, Abscisic acid, reference compound]",
    "AR": 0
  },
  {
    "Compound": "CCOP(=O)(NCc1cccnc1)c1ccc(F)c2ccccc12 (centres unmarked) [Analogue E5]",
    "AR": 0
  },
  {
    "Compound": "CCOP(=O)(NCc1ccccc1)c1ccc(Br)c2ccccc12 (centres unmarked) [Analogue E4]",
    "AR": "+++"
  },
  {
    "Compound": "CCOP(=O)(NCc1cccnc1)c1ccc(Br)c2ccccc12 (centres unmarked) [Analogue E3]",
    "AR": "−"
  },
  {
    "Compound": "CCOP(=O)(NCc1ccccn1)c1ccc(Br)c2ccccc12 (centres unmarked) [Analogue E1]",
    "AR": "−"
  }
]

Task item: Look up AR of CCOP(=O)(NCc1ccncc1)c1ccc(Br)c2ccccc12 (centres unmarked) [Analogue E7] and report it.
Reply: +++

Task item: Look up AR of CCOP(=O)(OCc1ccccn1)c1ccccc1 (centres unmarked) [Analogue D2] and report it.
Reply: 0

Task item: Look up AR of CCOP(=O)(Nc1cccnc1)c1ccccc1 (centres unmarked) [Analogue D3] and report it.
Reply: 0

Task item: Look up AR of CCOP(=O)(NCc1ccccn1)c1cccc2ccccc12 (centres unmarked) [Analogue E9] and report it.
Reply: −

Task item: Look up AR of CCOP(=O)(NCc1ccccc1)c1ccc(F)c2ccccc12 (centres unmarked) [Analogue E6] and report it.
Reply: +++

Task item: Look up AR of CCOP(=O)(NCc1ccccn1)c1ccc(F)c2ccccc12 (centres unmarked) [Analogue E2] and report it.
Reply: −
